Experimental System: SHP-2 (Homo sapiens)
Construct: using the catalytic core of a human recombinant PTP as the enzyme
Sequence (Q06124 247-517 limits assumed): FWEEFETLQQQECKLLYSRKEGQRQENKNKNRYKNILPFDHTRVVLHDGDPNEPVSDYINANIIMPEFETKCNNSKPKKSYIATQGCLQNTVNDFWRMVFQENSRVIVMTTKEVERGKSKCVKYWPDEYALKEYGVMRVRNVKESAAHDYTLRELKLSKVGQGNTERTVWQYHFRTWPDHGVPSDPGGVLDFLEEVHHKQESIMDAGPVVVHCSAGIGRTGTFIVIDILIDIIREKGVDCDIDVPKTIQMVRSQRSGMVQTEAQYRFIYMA
Procedure Summary: PTP Enzyme Assay (DiFMUP), SHP-2
Condition Details: catalytic core of human recombinant PTP; 20 μM DiFMUP; 30 minutes at room temperature; read-out: IC50 value in respect of SHP-2
Assay Endpoint: pIC50
Notebook: values listed as pIC50 are -log10 of the concentration (mol/L).

Recorded pIC50 (compound `O=C(NCc1ccc(Oc2ccccc2)cc1)c1ccc(CN(C(=O)CCC2CCCC2)c2ccc(O)c(C(=O)O)c2)cc1` ): 5.72

###

Experimental System: GLEPP-1 (Homo sapiens, UniProt Q16827)
Construct: using the catalytic core of a human recombinant PTP as the enzyme
Sequence (Q16827 938-1195 limits assumed): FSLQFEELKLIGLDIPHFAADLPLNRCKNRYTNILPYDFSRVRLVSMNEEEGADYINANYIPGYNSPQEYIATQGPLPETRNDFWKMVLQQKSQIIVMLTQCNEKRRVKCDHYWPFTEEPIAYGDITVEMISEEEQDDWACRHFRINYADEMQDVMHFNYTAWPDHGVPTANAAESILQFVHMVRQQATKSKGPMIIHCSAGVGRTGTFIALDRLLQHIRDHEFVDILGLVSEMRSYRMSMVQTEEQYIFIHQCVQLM
Procedure Summary: PTP Enzyme Assay (DiFMUP), GLEPP-1
Condition Details: catalytic core of human recombinant PTP; 30 μM DiFMUP; 30 minutes at room temperature; read-out: IC50 value in respect of GLEPP-1
Assay Endpoint: IC50 (µM)
Hi! Could you send only the number? It should be in µM, unit omitted.

Summary for this compound, O=C(NCc1ccc(Oc2ccccc2)cc1)c1ccc(CN(C(=O)CCC2CCCC2)c2ccc(O)c(C(=O)O)c2)cc1 [Example 1] : IC50 is 1.2

These entries and their values trace back to patent US7365225B2.
